This collection of values is drawn from the supplement of paper PMC7877785.

- method_description: self-splicing fitness, log relative to wild type (ln ratio); higher = more splicing; Tetrahymena group I intron in knt gene, E. coli kanamycin selection, DiMSum; sequences stand for … in CUCUCU…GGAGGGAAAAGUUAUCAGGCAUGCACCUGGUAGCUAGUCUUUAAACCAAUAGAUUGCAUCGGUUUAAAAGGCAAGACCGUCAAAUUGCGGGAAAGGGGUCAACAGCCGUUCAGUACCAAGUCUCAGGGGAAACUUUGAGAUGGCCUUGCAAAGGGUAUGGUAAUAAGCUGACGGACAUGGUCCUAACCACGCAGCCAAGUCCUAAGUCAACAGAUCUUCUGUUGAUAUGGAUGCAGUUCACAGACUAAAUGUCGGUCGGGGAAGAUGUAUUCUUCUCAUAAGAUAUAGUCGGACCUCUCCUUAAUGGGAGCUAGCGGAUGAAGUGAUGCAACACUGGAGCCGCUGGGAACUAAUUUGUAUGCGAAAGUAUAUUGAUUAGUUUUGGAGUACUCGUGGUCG;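 also: selection with 25 µg/mL kanamycin versus none on LB agar overnight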
- condition: 37 °C
Use -2 as the dividing line for self-splicing fitness (ln), with the line itself on the YES side and lower values as NO.

| seq | label |
| --- | --- |
| CCUCAGCAAUAUUACGGAGG | NO |
| AUAGAGCAAUAUUACGGAGU | YES |
| UGUGAGCAAUAUUACGUUAA | NO |
| CUUCAGCAAUAUUACGACCG | YES |
| UCUUAGCAAUAUUACGGCAG | NO |
| GAGCAGCAAUAUUACGCGCG | YES |
| CAUAAGCAAUAUUACGGGAG | YES |
| UACUAGCAAUAUUACGCGCU | YES |
| CGUAAGCAAUAUUACGUUCA | YES |
| GGUUAGCAAUAUUACGUACU | YES |
| CAAUAGCAAUAUUACGUUAA | NO |
| ACAAAGCAAUAUUACGGUCU | YES |
| UGUAAGCAAUAUUACGCGGG | YES |
| CUGAAGCAAUAUUACGAGAC | YES |
| CGCAAGCAAUAUUACGUGUG | NO |
| UCAAAGCAAUAUUACGGCAC | YES |
| AGGUAGCAAUAUUACGUUGC | NO |
| CGUAAGCAAUAUUACGGGUG | YES |
| CUAGAGCAAUAUUACGACCG | YES |
| AGGAAGCAAUAUUACGGCGU | YES |
| GGUCAGCAAUAUUACGUUCU | YES |
